system: Escherichia coli D21f2 with a truncated LPS barrier; experiment: MIC (microdilution) against E. coli D21f2; assay type: cell-based; conditions: read-out: MIC E coli D21f2
Examples of compounds with documented MIC follow.

**Query** I'd like to know its MIC. The compound in question is Oc1cc(OCc2ccccc2)ccc1-c1[nH]nc(C(F)(F)F)c1-c1ccccc1
**Result** > 50 mg/L

**Query** Can you look up the measured MIC of FC(F)(F)c1n[nH]c(-c2ccccc2)c1-c1ccc(Cl)cc1 for me?
**Result** > 250 mg/L

**Query** Would you mind telling me what MIC value was observed for COc1ccc(-c2c(C(F)(F)F)n[nH]c2-c2ccc(O)cc2O)cc1 ?
**Result** > 50 mg/L

**Query** What value of MIC has been reported for the following compound? COc1ccc(-c2c(C(F)(F)F)n[nH]c2-c2ccc(OC)cc2O)cc1
**Result** > 50 mg/L

* * *

tested on: Enterococcus faecium vanA (strain E1654); test: MIC (microdilution) against E. faecium; type: cell-based; conditions: Enterococcus faecium, read-out: MIC E. faecium
Parameter: MIC. Scope: all listed entries.
Numeric only. Scale: µg/mL

1. Oc1ccc(-c2onc(C(F)(F)F)c2-c2ccc(Cl)cc2)c(O)c1    12.5
2. COc1ccc(-c2c(C(F)(F)F)n[nH]c2-c2ccc(O)cc2O)cc1OC    50
3. COc1ccc(-c2c(C(F)(F)F)n[nH]c2-c2ccc(OCc3ccccc3)cc2O)cc1    1.56

Alright, here's another compound for you.
**Query** # get_value(readout='MIC', item= COc1ccc(-c2[nH]nc(C(F)(F)F)c2-c2ccc(OC)c(OC)c2)c(O)c1 )
**Result** 50
